All figures here come from ChEMBL document CHEMBL1201862.

Test system: HT-29
ASSAY_TEXT: NCI tumour cell line growth inhibition, 48 h
The source made the active and inactive calls. No stated cut-off is given here; in the data, active = GI50 up to about 1.1 µM and inactive = higher.
MEASURED_ENDPOINT: GI50

Here's what some known entries look like.
COMPOUND	GI50
COC(=O)C1CC(=O)CCC1c1ccccc1 (stereo not drawn)	> 100 µM (inactive)
CSc1ncnc2c1cnn2Cc1cn(COCCO)nn1	22.3 µM (inactive)
CC(=O)NC1C(OCc2ccccc2)OC(CO)C(O)C1OC(C)C(=O)NC(C(=O)NC(CCC(=O)NCCCC(=O)Nc1ccc2c(c1)CN1C(=O)c3ccccc3C1=N2)C(N)=O)C(C)C (stereo not drawn)	> 100 µM (inactive)
COC(=O)C(Cc1ccccc1)NC(=O)c1ccc(CNC(=S)NCc2cccc(CNC(=S)NCc3ccccc3)c2)cc1 (stereo not drawn)	> 33.7 µM (inactive)
O=c1[nH]c(=O)n(C2CC(O)C(CO)O2)cc1OCc1ccccc1 (stereo not drawn)	> 100 µM (inactive)
COC(=O)[C@@H]1COC(=O)N1	> 100 µM (inactive)
NCCCNCCCCN(CCCN)/[N+]([O-])=N\O	> 100 µM (inactive)
S=C(c1c[nH]c2ccccc12)N1CCN(c2ccccc2)CC1	59.6 µM (inactive)

Which GI50 reading was recorded for the compound COC(=O)C(=O)C(C(=O)C(=O)Nc1ccccc1[N+](=O)[O-])c1nc2ccc([N+](=O)[O-])cc2nc1O (stereo not drawn) ?
> 100 µM (inactive)

Can you share its GI50? I mean this compound: `COP(=O)(OC)[C@@](O)(c1ccccc1)[C@@H](O)[C@H](O)c1ccccc1`
> 100 µM (inactive)

Look up GI50 for this compound: `CCOC(=O)c1s/c(=N\Nc2nc3ccccc3cc2C2OCCO2)n(Cc2ccccc2)c1C`
> 100 µM (inactive)

What value of GI50 has been recorded for this entry: `Cn1cnc(CCc2ccccc2)n1`
> 100 µM (inactive)

Give its GI50 value. Item: `CCOC(=O)c1c(NC(=O)c2ccccc2)sc2c1CCC2`
> 100 µM (inactive)

Name the recorded GI50 for CC(OP(=O)(O)O)C(N)C(=O)O (stereo not drawn) .
> 100 µM (inactive)

# query: GI50 of entry `Cc1ccc(C(=O)OC[C@H]2CC[C@@H](n3cc(N(C)C4CCCCC4)c(=O)[nH]c3=O)O2)cc1`
18.5 µM (inactive)

Please report the recorded GI50 for `CC(NC(=O)c1ccccc1)(C(=O)O)C(=O)O` .
> 100 µM (inactive)

# input compound: `COCO[C@@H]1C[C@H]2C(=O)N(COC)c3ccccc3C(=O)N2C1` ; wanted: its GI50
> 100 µM (inactive)

Dear colleague, I am looking for the recorded GI50 of the following compound: CC1COS(=O)N1c1ccccc1 (stereo not drawn)
> 100 µM (inactive)
